Hello, the source for this data is a melting point compilation (Tetko et al.; mined from patent text by program, amines drawn as free bases though some values may be those of a salt), in case you need it.

Residues, ends and D or L forms follow the SMILES beside them. *: point of attachment. Bz = O=C(c1ccccc1)*
# melting point listing for each entry below

# count of solved cases: 8
Would you kindly share the measured melting point for COC(=O)c1ccc(C(=O)O)cc1C(=O)OC ? 168 to 169 °C

Could you share which melting point value was measured for O=C(O)C1=Cc2cc(Cl)c(Oc3ccc(Cl)cc3Cl)cc2OC1C(F)(F)F (configuration not stated) ? 233 to 234 °C

What does the record list as melting point for NC(=O)CNC(=O)c1cccc(-c2ccc(F)c3cc(Cc4cc(F)cc(Cl)c4)sc23)c1 ? 166 to 167 °C

Return reported melting point; argument: O=[N+]([O-])c1cc(I)cc(CF)c1 50.5 to 51.5 °C

Looking for the measured melting point of COC(=O)c1cc(=O)c2ccccc2o1 , can you help? 120 to 122 °C

Look up melting point for this compound: CCCCCCCCCOc1cc(C(=O)Nc2c(Cl)cncc2Cl)ccc1OC 151 to 153 °C

What value of melting point has been reported for the following compound? O=C(O)c1cccc2oc(-c3ccccc3OCc3ccccc3)nc12 103 to 104 °C

Returns the measured melting point for the input compound. Input: COc1ccc(-c2nc(C)c(Br)[nH]2)cc1 179 to 184 °C

Others:
Entry under review: Cc1ccc(S(=O)(=O)C2=CC3C=CC2N3C(=O)OC(C)(C)C)cc1 (configuration not stated) . Reported melting point? 94 to 99 °C

Please give the measured melting point for this compound: O=C1c2ccccc2C(=O)N1CCCCN1CCC(c2c[nH]c3ccccc23)CC1 106 to 108 °C

GET /values?readout=melting point&item= CS(=O)c1ccc(C2=C(c3cc(F)cc(F)c3)C(=O)C(C)(C)O2)cc1 (configuration not stated) 133 to 134 °C

Could you tell me which melting point is on file for COC(=O)C(Cc1ccc(O)cc1)NC(=O)C(Cc1ccccc1)NC(=O)c1ccccc1 (stereo not drawn) (Bz-Phe-Tyr-OMe; configuration not given here) ? 188 to 190 °C

# get_value(readout='melting point', item= O=CC(Nc1ccc2c(c1)OCC(=O)N2)N1CCC(Cc2ccc(F)cc2)CC1 (configuration not stated) ) 156 to 161 °C

Requested read-out: melting point. Entry: NC(=O)c1ncn2c(-c3ccccc3)ccnc12 226 to 228 °C

State the recorded melting point for this entry: CCN(CC)C(=O)c1c(-c2ccccc2)ccc2cc(-c3ccc(OC)cc3)ccc12 147 to 148 °C

What does the record list as melting point for CC(C)(C)OC(=O)NC1CC(=O)C1 ? 75 to 78 °C

melting point lookup needed for OC(CSc1nccs1)(Cn1cncn1)c1ccc(Cl)cc1Cl (configuration not stated) , thanks. 110 to 111 °C

May I ask what melting point has been recorded for COC(=O)[C@H](c1ccccc1Cl)N1CCc2sc(OC(=O)N(C)C)cc2C1 ? 96 to 98 °C

Record request: melting point value, item CCCCCCCCCCCCCCCCCCOc1cc(OCCCOc2ccc(C(C)(C)C)cc2)cc(N(CC(=O)O)CC(=O)O)c1 99 to 101 °C

// query melting point value for entry CCCC1=C(C(=O)OCC)C(c2ccccc2[N+](=O)[O-])c2c[nH]nc2N1 (configuration not stated) 218 °C

Find the recorded melting point belonging to Cc1ccc2oc([N+](=O)[O-])c(-c3ccccc3)c2c1 and report it. 144 to 146 °C

Data request, read-out melting point, for CCOC(=O)COc1cccc2c1C[C@@H](NCc1ccccc1)[C@H](O)C2 (relative stereo) 93 to 97 °C

I have this compound here, CCCOc1ccccc1-c1ncc(NC(C)=O)c(=O)[nH]1 , and I need its recorded melting point. 195 to 197 °C

Requested read-out: melting point. Entry: COc1ccc(C(F)(F)F)cc1N1CCN(CCCNC(=O)c2cccc3c(=O)c(C)c(-c4ccccc4)oc23)CC1 173 to 176 °C

Request the reported melting point associated with CCc1c2c(c(C)c(C)c1N1CCN(c3ccc(OC)cc3)CC1)OC(C)(C)C2=O 133 to 134 °C

I am curious: what melting point value has been reported for O=c1[nH]c2cc(Cl)ccc2c(O)c1-c1cccc(Cc2ccc(O)cc2)c1 ? 288 to 292 °C

Param item = CCCCNC(=S)Nc1cc(Cl)ccc1N1CCOCC1 ; retrieve measured melting point. 150 to 152 °C

Requested field: melting point. Item: COC(=O)c1nc(-c2ccc(Cl)c(OC)c2F)nc2ncn(C)c12 197 to 198 °C

Quick one: melting point for C=CCC1(Cc2nc[nH]c2C)CCc2c(C)c3ccccc3n2C1=O (configuration not stated) ? 209 to 210 °C
